- Test system: E. coli
- Type: cell-based
- TEST CONTEXT: E. coli (Gram-neg.); after three days; peptone-glucose agar; pH ~ 6.9-7.0
ENDPOINT LABEL: Minimal concentration causing complete inhibition of visible growth (MIC)

Consider the following illustrative entries.
compound=CCC[CH2][Sn]([CH2]CCC)([CH2]CCC)[CH2]CCO measured="> 1000 µg/mL"
compound=CCC[CH2][Sn]([CH2]CCC)([CH2]CCC)[CH2]CC(N)=O measured="> 1000 µg/mL"
compound=CCC[CH2][Sn]([CH2]CCC)([CH2]CCC)[CH2]CCOC(C)=O measured="> 1000 µg/mL"
compound="CCC[CH2][Sn]([CH2]CCC)([CH2]CCC)[O]C(C)=O [Bu3 SnOAc, reference compound]" measured="> 500 µg/mL"
compound="CCC[CH2][Sn]([CH2]CCC)([CH2]CCC)[CH2]CCC [Bu4 Sn, reference compound]" measured="> 500 µg/mL"

Now consider the entry below.
State the recorded Minimal concentration causing complete inhibition of visible growth (MIC) for this entry: CCC[CH2][Sn]([CH2]CCC)([CH2]CC[N+](C)(C)C)[CH2]CC[N+](C)(C)C.[I-].[I-] [Bu2 Sn[(CH2)3 NMe3 I]2]
> 1000 µg/mL
